Origin of the recorded values: PubChem BioAssay AID1259375

- target.system: Microphthalmia-associated transcription factor (Homo sapiens)
- assay.notes: MITF inhibitors by FRET titration, dose response, biochemical, high throughput (AID 1259375);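 also: FRET between CFP-tagged and YFP-tagged MITF protein partners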
- experimental.parameters: FRET biochemical assay, MITF inhibition
Calls of active or inactive are those of the source. No rule for the calls is given here.
Pick from 1 = active, 0 = inactive when you respond.

Call for entry C/C(=N\NC(=O)Cc1cc(=O)[nH][nH]1)c1ccco1 :
0

Call for entry C=C1c2c(Cl)ccc(O)c2C(O)=C2C(=O)[C@]3(O)C(O)=C(C(N)=O)C(=O)[C@@H](N(C)C)[C@@H]3[C@@H](O)[C@H]12 :
1

Call for entry O=C(O)c1cc(S(=O)(=O)Nc2ccc3cn[nH]c3c2)ccc1O :
0

---

- target.system: Microphthalmia-associated transcription factor (Homo sapiens)
- assay.notes: MITF inhibitors by FRET titration, dose response, biochemical, high throughput (AID 1259375);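 also: FRET between CFP-tagged and YFP-tagged MITF protein partners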
- experimental.parameters: FRET biochemical assay, MITF inhibition
Active and inactive are the calls of the source. No rule for the calls is given here.
Pick from active, inactive when you respond.

# example entries with known answers
COc1cccc(CN2CCC(CNc3ccc(-c4ccncc4)cc3)C2)c1 (stereo not drawn) = inactive
O=C(NCc1ccccc1)N1CCN2C(=O)[C@@H]3CSCN3C(=O)[C@H]2C1 = inactive
O=C(OC1CCCC1=O)c1ccc(S(=O)(=O)N2CCCCC2)cc1 (stereo not drawn) = inactive
CC(C)[C@H]1NC(=O)[C@H]2CN(C(=O)NC3CCCCC3)CCN2C1=O = inactive

Call for entry O=C(/C=C/c1ccco1)NC(=S)Nc1cc(C(=O)O)ccc1Cl :
active

Call for entry Cn1cc(-c2nc(Nc3ccc(-n4cnc(N5CCOCC5)n4)cc3)ncc2Br)cn1 :
inactive

Call for entry O=C(C1CCC(Nc2nccc(-c3ccc4nc(C5CC5)[nH]c(=O)c4c3)n2)CC1)N1CCCC1 (stereo not drawn) :
inactive

Call for entry O=C(O)c1cc(-n2cccc2)ccc1Cl :
inactive

Call for entry Nc1cccc(N2C(=O)c3cc(S(=O)O)cc4c(N)c(S(=O)O)cc(c34)C2=O)c1 :
inactive

Call for entry O=C(O)c1coc(CNC(=O)c2cocc2C(=O)O)c1 :
inactive

Call for entry O=C(c1ccc(=O)oc1)N1CCc2ccccc21 :
inactive

Call for entry NC(=O)c1ccc2nc(-c3cccs3)sc2c1 :
inactive

Call for entry O=C(OC1CCOC1=O)c1ccc(S(=O)(=O)NCc2ccco2)cc1 (stereo not drawn) :
inactive

Call for entry C[C@H](O)[C@H]1NC(=O)[C@H]2CN(C(=O)NCc3ccccc3)CCN2C1=O :
inactive

Call for entry O=c1[nH]cnc2nc(-c3ccco3)c(-c3ccco3)nc12 :
inactive

Call for entry CC(C)C[C@H]1NC(=O)[C@H]2CN(C(=O)NC3CCCCC3)CCN2C1=O :
inactive

Call for entry CN(C)[C@@H]1C(=O)C(C(N)=O)=C(O)[C@@]2(O)C(=O)C3=C(O)c4c(O)cccc4[C@@](C)(O)[C@H]3[C@H](O)[C@@H]12 :
active

Call for entry Cc1nc(C)n(-c2ccc(Nc3cc(-n4cc(N(c5cccnc5)c5cccnc5)cn4)ccn3)cc2)n1 :
inactive

---

- target.system: UniProt:O75030
- assay.notes: MITF inhibitors by FRET titration, dose response, biochemical, high throughput (AID 1259375);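 also: FRET between CFP-tagged and YFP-tagged MITF protein partners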
- experimental.parameters: FRET biochemical assay, MITF inhibition
Calls of active or inactive are those of the source. No rule for the calls is given here.
Pick from Yes for active, No for inactive when you respond.

# example entries with known answers
O=Cc1cccn1-c1ccc(C(=O)O)cc1 = No
O=C(Nc1cc(S(=O)(=O)O)cc2cc(S(=O)(=O)O)cc(O)c12)c1ccccc1 = No
COc1ccc(CC2NCCc3cc(OC)c(OC)cc32)cc1OC (configuration not stated) = Yes
O=c1[nH]c(/C=C/c2ccco2)nc(O)c1[N+](=O)[O-] = No
N[C@@H](C(=O)N[C@@H]1C(=O)N2C(C(=O)O)=C(CSC3CNNN3)CS[C@H]12)c1ccc(O)cc1 (some centres not stated) (tested in a mixture with another compound) = No
O=C1c2c(O)cccc2Cc2cccc(O)c21 = No

Call for entry O=C(NCc1ccccc1)N1CCN2C(=O)[C@H]3CCCN3C(=O)[C@H]2C1 :
No

---

- target.system: UniProtKB O75030
- assay.notes: MITF inhibitors by FRET titration, dose response, biochemical, high throughput (AID 1259375);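 also: FRET between CFP-tagged and YFP-tagged MITF protein partners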
- experimental.parameters: FRET biochemical assay, MITF inhibition
The source made the active and inactive calls. The rule behind the calls is not given here.
measured.quantity: IC50

CCN(CCN(C)C)Cc1ccc(F)cc1 = > 6.48 µM (inactive)
O=C(/C=C/c1ccco1)NC(=S)Nc1ccc(Cl)c(C(=O)O)c1 = > 6.48 µM (inactive)

Hi team, please reply with IC50 for each item in this list.
1. N#CC(C#N)=Cc1cccn1-c1ccc(C(=O)O)cc1
2. C/C(=N\NC(=O)CC1=NNC(=O)C1)c1ccco1
3. CN(C)C1C(=O)C(C(N)=O)=C(O)C2(O)C(=O)C3=C(O)c4c(O)cccc4C(C)(O)C3CC12 (stereo unspecified)
4. c1ccc2c(c1)ncn2CC1CCN(Cc2cn3ccccc3n2)CC1
5. CCN(CC)CC(=O)Nc1ccc(OC)cc1

> 6.48 µM (inactive)
> 6.48 µM (inactive)
> 6.48 µM (inactive)
> 6.48 µM (inactive)
> 6.48 µM (inactive)

Hi team, please reply with IC50 for each item in this list.
1. CN(C)C(=O)N1CCN(S(=O)(=O)c2cccc([N+](=O)[O-])c2)CC1
2. NC(=O)COC(=O)c1cc2c(s1)CCC2
3. Cn1c(SCc2cc(=O)n3c(n2)sc2ccccc23)nnc1C(F)(F)F
4. CN(Cc1ccco1)S(=O)(=O)c1ccc2[nH]cc(C(=O)O)c(=O)c2c1

["> 6.48 µM (inactive)", "> 6.91 µM (inactive)", "> 7.18 µM (inactive)", "> 6.48 µM (inactive)"]

---

- target.system: Microphthalmia-associated transcription factor (Homo sapiens)
- assay.notes: MITF inhibitors by FRET titration, dose response, biochemical, high throughput (AID 1259375);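 also: FRET between CFP-tagged and YFP-tagged MITF protein partners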
- experimental.parameters: FRET biochemical assay, MITF inhibition
Active and inactive are the calls of the source. No rule for the calls is given here.
Assign IC50 to each entry below.

Record excerpt, results attached:
COc1ccc(C)cc1NC(=O)C(NCC(O)c1ccccc1)c1ccccc1 (stereo not drawn) = > 7.02 µM (inactive)
Cc1ccc(N2C(=O)C3C(C2=O)C2(CO)C=CC3(C)O2)cc1[N+](=O)[O-] (stereo not drawn) = > 6.48 µM (inactive)
C[C@@H]1NC(=O)[C@H]2CN(C(=O)NC3CCCCC3)CCN2C1=O = > 6.48 µM (inactive)
Oc1ccc2c(c1)C1CCCC1(N1CCOCC1)O2 (stereo not drawn) = > 6.48 µM (inactive)
COc1nccnc1NS(=O)(=O)c1ccc(NC(=O)c2ccc([N+](=O)[O-])c(C)c2)cc1 = > 6.48 µM (inactive)

Hi team, please reply with IC50 for each item in this list.
1. COC(=O)CN(CCN(CC(=O)O)CC(=O)OC)CC(=O)O
2. CN1C(=O)[C@H]2CN(C(=O)NC3CCCCC3)CCN2C(=O)[C@@H]1CO
3. O=C(O)c1cc(S(=O)(=O)Nc2ccc(-n3cnnn3)cc2)ccc1O

["> 5.37 µM (inactive)", "> 6.48 µM (inactive)", "> 7.18 µM (inactive)"]

---

- target.system: Microphthalmia-associated transcription factor (Homo sapiens)
- assay.notes: MITF inhibitors by FRET titration, dose response, biochemical, high throughput (AID 1259375);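 also: FRET between CFP-tagged and YFP-tagged MITF protein partners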
- experimental.parameters: FRET biochemical assay, MITF inhibition
Activity calls are given as the source filed them. How the calls were made is not given here.
measured.quantity: IC50

Hi team, please reply with IC50 for each item in this list.
1. CN(N=O)c1cc(O)ccc1O
2. Cc1cccc(OCC(=O)N2CCN(Cc3cccc(Br)c3)CC2)c1
3. NC(=O)COC(=O)/C=C/c1ccc(I)o1

> 6.48 µM (inactive)
> 6.48 µM (inactive)
> 7.27 µM (inactive)

Hi team, please reply with IC50 for each item in this list.
1. Nc1cc(Br)cnc1N
2. O=C1N[C@H](Cc2ccc(O)cc2)C(=O)N2CCN(C(=O)NC3CCCCC3)C[C@H]12

> 8.62 µM (inactive)
> 6.48 µM (inactive)

---

- target.system: Microphthalmia-associated transcription factor (Homo sapiens) (UniProt O75030)
- Sequence (O75030 whole entry, looked up): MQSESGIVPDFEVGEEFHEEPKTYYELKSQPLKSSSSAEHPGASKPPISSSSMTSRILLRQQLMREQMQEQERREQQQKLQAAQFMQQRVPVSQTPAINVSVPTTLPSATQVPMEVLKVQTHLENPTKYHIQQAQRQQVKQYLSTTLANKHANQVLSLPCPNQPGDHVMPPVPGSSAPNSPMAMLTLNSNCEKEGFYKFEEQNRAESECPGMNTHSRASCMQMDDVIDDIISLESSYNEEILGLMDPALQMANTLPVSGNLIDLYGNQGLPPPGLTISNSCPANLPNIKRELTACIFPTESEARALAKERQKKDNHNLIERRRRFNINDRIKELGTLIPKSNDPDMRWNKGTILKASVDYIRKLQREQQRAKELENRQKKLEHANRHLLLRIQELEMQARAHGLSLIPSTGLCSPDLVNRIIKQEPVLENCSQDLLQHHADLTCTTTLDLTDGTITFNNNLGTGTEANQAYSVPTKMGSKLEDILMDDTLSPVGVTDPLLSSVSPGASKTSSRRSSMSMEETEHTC
- assay.notes: MITF inhibitors by FRET titration, dose response, biochemical, high throughput (AID 1259375);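 also: FRET between CFP-tagged and YFP-tagged MITF protein partners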
- experimental.parameters: FRET biochemical assay, MITF inhibition
Activity calls are given as the source filed them. The rule behind the calls is not given here.
Assign IC50 to each entry below.

Oc1ccc(CCNc2cc(-c3cccs3)ncn2)cc1 = > 6.7 µM (inactive)

Hi team, please reply with IC50 for each item in this list.
1. O=C(O)c1cc([N+](=O)[O-])cc2c1-c1c(cc([N+](=O)[O-])cc1[N+](=O)[O-])/C2=C/c1ccco1
2. CCCCn1c(=O)[nH]c(=O)c2c1nc(-c1ccc([N+](=O)[O-])o1)n2C
3. CN1C(=O)[C@H]2CN(C(=O)NCc3ccccc3)CCN2C(=O)[C@@H]1Cc1ccccc1
4. NC(=O)c1ccc(-c2cccs2)s1
5. CC[C@H](C)[C@@H]1NC(=O)[C@H]2CN(C(=O)NC3CCCCC3)CCN2C1=O
6. Cc1cc(N=Cc2ccc([N+](=O)[O-])o2)ccc1S(=O)(=O)O
7. COc1cc(OC)c(OC)cc1CN1CCN(Cc2ccc(C)cc2)CC1
8. CC1=NN(c2ccc(C(=O)O)c(N)c2)C(=O)C1

1. 1.77 µM
2. > 7 µM (inactive)
3. > 6.48 µM (inactive)
4. > 7.32 µM (inactive)
5. > 6.48 µM (inactive)
6. > 6.48 µM (inactive)
7. > 5.76 µM (inactive)
8. > 6.48 µM (inactive)
